# protocol_text: Noncompartmental PK of rutin after oral administration of pure rutin or P. peruviana extract
# Assay type: in vivo, New Zealand White rabbits
# condition_notes: male, New Zealand White, rabbit, plasma, po; rutin; p.o.; pure rutin 100 mg/kg, extract equivalent to 7.4 mg/kg of rutin; NCA; mean ± SD, n = 5; read-out: Vz/F
reported_endpoint: Vd/F (L/kg)
One number for each entry, in L/kg.

Query block: Identify Vd/F associated with the molecule C[C@@H]1O[C@@H](OC[C@H]2O[C@@H](Oc3c(-c4ccc(O)c(O)c4)oc4cc(O)cc(O)c4c3=O)[C@H](O)[C@@H](O)[C@@H]2O)[C@H](O)[C@H](O)[C@H]1O [Pure Rutin, quercetin-3-O-rutinoside]
Result block: 59.1

###

# protocol_text: Noncompartmental PK of rutin after oral administration of pure rutin or P. peruviana extract
# Format: in vivo, New Zealand White rabbits
# condition_notes: male, New Zealand White, rabbit, po; rutin in plasma; pure rutin 100 mg/kg, extract equivalent to 7.4 mg/kg of rutin; NCA; mean ± SD, n = 5
reported_endpoint: AUC(0-inf) (ng·h/mL)
Give bare numbers, in ng·h/mL.

Query block: Identify AUC(0-inf) associated with the compound C[C@@H]1O[C@@H](OC[C@H]2O[C@@H](Oc3c(-c4ccc(O)c(O)c4)oc4cc(O)cc(O)c4c3=O)[C@H](O)[C@@H](O)[C@@H]2O)[C@H](O)[C@H](O)[C@H]1O [Pure Rutin, quercetin-3-O-rutinoside]
Result block: 7790

###

# protocol_text: Population PK model of rutin after i.v. administration (two-compartment, first-order elimination)
# Assay type: in vivo, New Zealand White rabbits
# condition_notes: New Zealand White, rabbit, plasma, intravenous, 0.37 mg/kg, popPK individual parameters, Cl = k × V, per animal, read-out: Cl, rabbit parameter (converted)
reported_endpoint: clearance (mL/min)
One number for each entry, in mL/min.

Query block: Identify clearance associated with the compound C[C@@H]1O[C@@H](OC[C@H]2O[C@@H](Oc3c(-c4ccc(O)c(O)c4)oc4cc(O)cc(O)c4c3=O)[C@H](O)[C@@H](O)[C@@H]2O)[C@H](O)[C@H](O)[C@H]1O [Pure Rutin, quercetin-3-O-rutinoside]
Result block: 3.13

###

# protocol_text: Noncompartmental PK of rutin after intravenous administration of pure rutin or P. peruviana extract
# Format: in vivo, New Zealand White rabbits
# condition_notes: male, New Zealand White, rabbit, plasma, iv, 0.37 mg/kg, rutin; i.v.; pure rutin 0.37 mg/kg, extract equivalent to 1.48 mg/kg of rutin; NCA; mean ± SD, n = 5; read-out: Vss
reported_endpoint: Vd (L/kg)
Give bare numbers, in L/kg.

Query block: Identify Vd associated with the compound C[C@@H]1O[C@@H](OC[C@H]2O[C@@H](Oc3c(-c4ccc(O)c(O)c4)oc4cc(O)cc(O)c4c3=O)[C@H](O)[C@@H](O)[C@@H]2O)[C@H](O)[C@H](O)[C@H]1O [Pure Rutin, quercetin-3-O-rutinoside]
Result block: 0.29

###

# protocol_text: Noncompartmental PK of rutin after intravenous administration of pure rutin or P. peruviana extract
# Type: in vivo, New Zealand White rabbits
# condition_notes: male, New Zealand White, rabbit, plasma, iv; rutin; pure rutin 0.37 mg/kg, extract equivalent to 1.48 mg/kg of rutin; NCA; mean ± SD, n = 5
reported_endpoint: clearance (mL/min/kg)
One number for each entry, in mL/min/kg.

Query block: Identify clearance associated with the compound C[C@@H]1O[C@@H](OC[C@H]2O[C@@H](Oc3c(-c4ccc(O)c(O)c4)oc4cc(O)cc(O)c4c3=O)[C@H](O)[C@@H](O)[C@@H]2O)[C@H](O)[C@H](O)[C@H]1O [Pure Rutin, quercetin-3-O-rutinoside]
Result block: 1.32
